# Tested on: TRPC4 (mouse), co-expressed with 5HT1a in HEK293
# measurement_description: enhancement of serotonin-evoked TRPC4 response – cell-based, second counter screen, HEK293 TRPC4/5HT1a, Fluo-4, counter-screen for TRPC4 potentiator project, confirmation (AID 434979)
# run_conditions: Fluo-4 calcium flux, at 10 µM, serotonin added at its EC20 dose
Activity calls are given as the source filed them.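 How the source made its calls: active means signal rise over 3 SD above mean of control wells given weak agonist, in both repeats and first screen; inactive means the rest.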
Your reply should match one of these outcome classes. 1 for active, -1 for inactive

Hi team, can someone confirm the assay call for "CC(C)CCn1c(Sc2nc3ccccc3o2)nc2c1c(=O)[nH]c(=O)n2C" ?
1

Would you mind telling me which call this test gave "CC1(C)CC(=O)C(C=NCCN2CCN(C(=O)CCl)CC2)=C(O)C1" ?
-1

Identify the outcome logged in this assay for the molecule shown: "CCn1c(N2CCN(C(=S)NCCc3ccccc3)CC2)nc2ccccc21"
-1

Assay result, entry "COc1cccc(C(=O)Oc2ccc(/C=N/Nc3ccc(C(=O)O)cc3)cc2OC)c1" — outcome?
-1

Field: outcome | Entry: Cn1cc(CNCC2CCCO2)c(-c2ccc(Oc3ccccc3)cc2)n1 (stereo unspecified)
-1

----------
# System: TRPC4 beta (transient receptor potential cation channel C4), mouse
# measurement_description: potentiation of DAMGO EC20 TRPC4 response – cell-based, Fluo-4, HEK293 TRPC4beta/mu-opioid, confirmation (AID 2555)
# run_conditions: DAMGO EC20, Fluo-4 calcium flux, at 10 µM
Activity calls are given as the source filed them.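 Rule for the calls: active = primary screen hit whose calcium fluorescence ratio, in both repeats, exceeds the weak agonist control mean by 3 SD; inactive = the rest.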
Write down one outcome, taken from active, inactive

Answer briefly: the call reported for "CCc1ccc2nc3nc(C)cc(C)c3c(N)c2c1" in this assay.
inactive

Each molecule tested received a call. Report the one for "Cc1cccc(C(=O)Nc2sc(-c3ccccc3)cc2C(=O)O)c1" .
inactive

What was the test verdict on "Cc1ccc2oc(C(=O)N3CCC(O)(c4ccccc4)CC3)c(C)c2c1" ?
active

Lab log entry: "O=S(=O)(c1ccc(Cl)cc1Br)N1CCCCC1" — outcome as called in the assay?
inactive

Test call for this molecule, please: "O=[N+]([O-])c1ccc(C[n+]2cccc(O)c2)cc1"
inactive

----------
# system_name: Short transient receptor potential channel 4 (Mus musculus) (UniProt Q9QUQ5)
# Sequence (Q9QUQ5 whole entry, looked up): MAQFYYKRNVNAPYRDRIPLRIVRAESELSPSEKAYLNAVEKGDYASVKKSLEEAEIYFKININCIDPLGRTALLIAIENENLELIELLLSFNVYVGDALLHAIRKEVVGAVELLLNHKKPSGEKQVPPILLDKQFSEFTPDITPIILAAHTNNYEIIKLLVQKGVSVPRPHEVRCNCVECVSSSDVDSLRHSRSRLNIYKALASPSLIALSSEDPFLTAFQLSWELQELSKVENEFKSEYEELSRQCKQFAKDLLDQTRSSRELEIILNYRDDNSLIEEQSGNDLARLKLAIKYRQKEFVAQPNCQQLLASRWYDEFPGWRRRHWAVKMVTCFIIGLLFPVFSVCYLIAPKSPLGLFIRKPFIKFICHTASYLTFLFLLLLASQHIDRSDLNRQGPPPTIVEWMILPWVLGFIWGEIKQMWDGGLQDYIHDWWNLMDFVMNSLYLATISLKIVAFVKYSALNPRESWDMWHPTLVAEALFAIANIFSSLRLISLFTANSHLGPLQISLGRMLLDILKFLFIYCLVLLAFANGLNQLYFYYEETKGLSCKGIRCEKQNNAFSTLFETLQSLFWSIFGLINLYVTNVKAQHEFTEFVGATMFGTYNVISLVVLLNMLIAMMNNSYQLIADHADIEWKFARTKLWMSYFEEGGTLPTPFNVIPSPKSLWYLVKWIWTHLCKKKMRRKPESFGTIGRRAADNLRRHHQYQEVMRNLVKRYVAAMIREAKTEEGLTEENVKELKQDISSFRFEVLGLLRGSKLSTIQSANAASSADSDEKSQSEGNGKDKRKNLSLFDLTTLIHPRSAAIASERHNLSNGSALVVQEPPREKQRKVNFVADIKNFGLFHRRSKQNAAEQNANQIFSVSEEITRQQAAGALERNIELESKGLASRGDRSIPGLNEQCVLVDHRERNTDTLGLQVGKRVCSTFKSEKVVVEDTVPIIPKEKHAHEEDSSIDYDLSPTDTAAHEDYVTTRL
# measurement_description: DAMGO-gated TRPC4 membrane potential modulation – cell-based, second specificity screen, HEK293 TRPC4/mu-opioid, selectivity assay for TRPC6 inhibitor project, confirmation (AID 2776)
# run_conditions: HEK293 TRPC4/MOR, membrane potential dye fluorescence, at 10 µM, channel activated by saturating DAMGO dose
This is one part of the list. Active and inactive are the calls of the source.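 The calls were made as follows: active = compounds whose fluorescence signal differed from control wells by over 3 SD, either direction, in both duplicate plates; inactive = the rest.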
Your reply should match one of these outcome classes. active, inactive

Worked examples follow.
| compound | class_assignment |
| --- | --- |
| O=C(NC(Nc1nc2ccc([N+](=O)[O-])cc2s1)(C(F)(F)F)C(F)(F)F)c1ccccc1 | active |
| CCCCOc1ccc(CSC(=N)N)cc1[N+](=O)[O-] | active |
| Cc1ccc2nc(C)c3c(c2c1)N(c1ccccc1)CC3 | active |
| N=c1c2c(-c3ccccc3)c(-c3ccccc3)n(Cc3ccccc3)c2ncn1CCCO | inactive |
| Cc1cc2oc3ccc(NCCC4CCCN4C)cc3c(=O)c2cc1C (configuration not stated) | active |
| Oc1c(Cl)cc(Cl)c(Cl)c1Cc1c(O)c(Cl)cc(Cl)c1Cl | active |

Can you look up the reported call for CC(Nc1nc(N2CCCC2)nc2ccccc12)c1ccccc1 (configuration not stated) for me?
inactive

----------
# system_name: Short transient receptor potential channel 6 (Mus musculus)
# measurement_description: TRPC6 opening by TRPC4 activator hits – cell-based, HEK293, membrane potential dye, duplicate, selectivity assay for TRPC4 activator project, confirmation (AID 434950);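 further: 0% = buffer only wells and 100% = acetylcholine maximal-effect wells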
# run_conditions: HEK293 TRPC6, membrane potential fluorescence, at 10 µM; stronger effect = higher value
Listed compounds paired with reported activation
Could you give me the number in %? Just the number is fine.

| compound | system_name | recorded_result |
| --- | --- | --- |
| O=c1c2cc(Br)ccc2nc(-c2cccc(Cl)c2)n1O | Short transient receptor potential channel 6 (Mus musculus) | 38.5 |

Short transient receptor potential channel 6 (Mus musculus) activation of COc1ccccc1N1CCN(C(c2cccs2)C(C)NC(=O)c2ccco2)CC1 (stereo not given) is 32

Item: "COc1ccc(-c2nc(CSCC(=O)NC3CCN(Cc4ccccc4)CC3)c(C)o2)cc1OC" | System: Short transient receptor potential channel 6 (Mus musculus) | activation: 99.5

Tested on Short transient receptor potential channel 6 (Mus musculus), the item "Cc1ccc(C)c(-n2cc(CNCCCn3cccn3)c(-c3ccccc3)n2)c1" showed activation equal to 48.5

# activation measured on Short transient receptor potential channel 6 (Mus musculus) for item OC1(c2ccc(Cl)cc2)CN(c2ccccc2)C2=[N+]1CCS2 (stereo not given) = 38

----------
# system_name: Short transient receptor potential channel 4 (Mus musculus) (UniProt Q9QUQ5)
# measurement_description: calcium flux activators in TRPC4/5HT1a cells, counter-screen for TRPC4 activator project, cell-based, second counter screen, HEK293 TRPC4/5HT1a, Fluo-4 (AID 434977);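 on activation: plate controls were assay buffer for no effect and maximal serotonin response for full effect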
# run_conditions: Fluo-4 calcium flux, at 10 µM; stronger effect = higher value
The source made the active and inactive calls.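 The calls were made as follows: active = calcium signal rise above buffer-control mean plus 5 SD in both duplicates, and also a hit in the primary screen; inactive = the rest.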
readout_type: activation

Solved entries:
| compound | recorded_result |
| --- | --- |
| CC(C)c1cccc(OCCCCN(C)C)c1 | inactive |
| O=c1oc2ccccc2c(O)c1/C=C1\C=Nc2ccccc21 | inactive |
| CCn1c(N2CCN(C(=S)NCC(C)C)CC2)nc2ccccc21 | 27.9% (active) |
| COc1ccc(OC)c(Nc2cc(-c3ccccc3)nc(N)n2)c1 | inactive |

Noted for CCCCC(CC)C(=O)Nc1ncc([N+](=O)[O-])s1 (configuration not stated) : its activation reads inactive

The compound "CCCCN(CC)CCNC(=O)Cn1cc2c(n1)-c1c(oc(C(=O)N3CCCC3)c1C)CC2" showed activation equal to 18.6% (active)

The compound listed as "CCOC(=O)c1ccc(NC(=O)NCCc2cnc[nH]2)cc1" has a reported activation of 90.7% (active)

Item: "Cc1ccc(C)c(N(CC(=O)NC2CCCC2)C(=O)c2csnn2)c1" | activation: inactive

Value of measured activation for the entry "C=C(C)COc1ccc(-c2nc(N)ncc2-c2ccccc2OC)c(O)c1" : inactive

Data point: "O=C(O)CCC(=O)N1CCN(c2nc3ccccc3s2)CC1" ; activation = inactive

Record summary for "c1cnc(N2CCN(c3cnccn3)CC2)nc1" : reported activation = inactive

Record CCCNC(=O)c1nnsc1S(=O)c1ccc(Cl)cc1 (configuration not stated) , field activation: inactive

----------
# Test system: TRPC4 (mouse), co-expressed with 5HT1a in HEK293
# measurement_description: enhancement of serotonin-evoked TRPC4 response – cell-based, second counter screen, HEK293 TRPC4/5HT1a, Fluo-4, counter-screen for TRPC4 potentiator project, confirmation (AID 434979)
# run_conditions: Fluo-4 calcium flux, at 10 µM, serotonin added at its EC20 dose
Calls of active or inactive are those of the source.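 The calls were made as follows: active = signal rise over 3 SD above mean of control wells given weak agonist, in both repeats and first screen; inactive = the rest.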
Your response should consist of one outcome taken from active, inactive

Below are worked cases with known answers.
| compound | class_assignment |
| --- | --- |
| COc1ccc(C)c(NC(=O)NCCc2cnc[nH]2)c1 | inactive |
| COc1ccc(NC(C)=O)cc1NC(C)C(=O)Nc1cc(C(F)(F)F)ccc1N1CCOCC1 (stereo not drawn) | active |
| O=C(Nc1ccccc1N1CCN(C(=O)c2ccc(Cl)cc2)CC1)c1cccc([N+](=O)[O-])c1 | inactive |
| Cn1c(N2CCN(C(=O)Nc3ccc(C(F)(F)F)cc3)CC2)nc2ccccc21 | inactive |
| O=C(NCc1ccccc1)C1=C[C@@H](C2CCCCC2)C[C@@H](OCc2ccc(CO)cc2)O1 | inactive |
| COc1ccc(/C=C2/SC(=S)N(NS(=O)(=O)c3ccc(C)cc3)C2=O)cc1 | inactive |
| COc1cc2nc(=S)n3[nH]c(CCn4nc(C)cc4C)nc3c2cc1OC | inactive |
| CN1CCN(c2ccc(NC(=O)COc3cccc4ccccc34)cc2)CC1 | inactive |

Just curious, what result did Cc1ccc(C)c2[nH]c(=O)c(CN(Cc3nnnn3C3CCCCC3)CC3CCCO3)cc12 (stereo not drawn) get here?
inactive

Record request — test call for "CCCN(CCC)CCCNC(=O)CNC(=O)c1nn(-c2ccc(OC)cc2)c(=O)c2ccccc12"
inactive

In this assay, the call recorded for "Cc1nn(-c2ccccc2)c2[nH]c(C(F)(F)F)cc(=O)c12" was what?
inactive

Which outcome did this test record for the compound "Cc1cc(C)c(S(=O)(=O)c2ccccc2C)c(OCC(C)(C)C)n1" ?
inactive

Can you look up the reported call for "COc1ccc(/C=C/C(=O)Oc2cc(O)cc(O)c2)cc1" for me?
inactive

// return assay outcome for COc1ccc(C(CNC(=O)c2ccc3c(c2)OCCO3)N(C)C)cc1 (stereo not drawn)
inactive

# fetch the recorded call for "Cc1cc2[nH]c3ccccc3c2c(C)n1" here
inactive

Tell me the recorded outcome of this test for CCN1CCN(c2ccc(S(=O)(=O)N3CCCCC3)cc2NC(=O)CC(C)c2ccccc2)CC1 (stereo not drawn) .
inactive

I'd appreciate the recorded outcome for CCN(CCNC(=O)C1CCCN(c2ncnc3c2nc2n3CCCCC2)C1)Cc1ccccc1 (stereo not drawn) from this test.
inactive

Write down the call the test reported for this compound. Item: "CC(=O)n1cc([C@@H]2C=C(C(=O)NCc3ccccc3)O[C@H](OCc3ccc(CO)cc3)C2)c2ccccc21"
active

What is the recorded call for this compound in the test? "C=CCNc1nc(N2CCCC2)nc2ccccc12"
inactive

// return assay outcome for "Cc1ccc(S(=O)(=O)N2CCC(N3CCN(C)CC3)CC2)cc1Cl"
active
